- Tested System: Aryl hydrocarbon receptor (Homo sapiens) (UniProt P35869)
- Sequence (P35869 whole entry, looked up): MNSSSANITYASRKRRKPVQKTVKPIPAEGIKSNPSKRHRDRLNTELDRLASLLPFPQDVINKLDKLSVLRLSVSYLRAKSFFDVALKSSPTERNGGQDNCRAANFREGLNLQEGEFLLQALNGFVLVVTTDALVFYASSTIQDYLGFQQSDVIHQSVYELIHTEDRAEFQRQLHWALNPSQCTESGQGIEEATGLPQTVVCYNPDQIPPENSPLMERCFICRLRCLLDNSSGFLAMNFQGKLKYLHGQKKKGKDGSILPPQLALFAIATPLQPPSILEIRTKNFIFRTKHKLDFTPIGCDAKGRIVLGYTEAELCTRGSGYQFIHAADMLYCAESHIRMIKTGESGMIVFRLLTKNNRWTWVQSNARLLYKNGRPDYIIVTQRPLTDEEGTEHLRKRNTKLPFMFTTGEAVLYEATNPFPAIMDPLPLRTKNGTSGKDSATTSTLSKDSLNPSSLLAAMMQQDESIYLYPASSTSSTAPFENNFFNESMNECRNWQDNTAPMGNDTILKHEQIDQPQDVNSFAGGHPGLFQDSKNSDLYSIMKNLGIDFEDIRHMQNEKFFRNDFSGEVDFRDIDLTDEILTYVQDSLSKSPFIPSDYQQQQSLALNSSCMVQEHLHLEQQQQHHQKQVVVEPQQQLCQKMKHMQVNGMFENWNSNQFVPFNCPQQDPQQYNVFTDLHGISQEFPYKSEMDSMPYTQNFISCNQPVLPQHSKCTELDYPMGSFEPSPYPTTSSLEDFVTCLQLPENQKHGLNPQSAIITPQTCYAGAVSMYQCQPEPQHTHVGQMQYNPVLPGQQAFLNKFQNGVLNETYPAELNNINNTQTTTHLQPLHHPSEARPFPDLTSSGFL
- Assay Summary: qHTS assay to identify small molecule that activate the aryl hydrocarbon receptor (AhR) signaling pathway (AID 743085); also: nearly all actives have a fitted effect of over 15% in size;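 as to activation: HG2L7.5c1 human HepG2 liver cells with stably integrated DRE-driven firefly reporter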
- Measurement Parameters: HepG2 AhR-luc (HG2L7.5c1), luciferase, 24 h; series mostly up to 70.3 µM
Results filed as inconclusive are left out. Activity calls are given as the source filed them. Calls follow the shape of the dose curve; as a rule, active = well fitted activation curve with a large enough effect in the repeat runs; inconclusive = weak or mixed curves; inactive = no such curve, though single readings can be large or run the other way.
Tick one outcome: active, inactive

Examples with answers:
                                   compound       cat
0  CCc1c2c(nc3ccc(OC(=O)N4CCC(N5CCCCC5)CC4)cc13)-c1cc3c(c(=O)n1C2)COC(=O)[C@]3(O)CC  inactive
1                O=C(CCCCCCCCC#CI)Oc1ccccc1  inactive
2  CC1CC(=O)NN=C1c1ccc(NCC(C)(C)NCC(O)COc2cc(Cl)ccc2C#N)cc1 (stereo unspecified)    active
3                              Cc1ccc(S)cc1  inactive

[in] Assay outcome for `OC/C(Br)=C(\Br)CO` : what was it?
[out] inactive

[in] Assay outcome for CCCCC(CC)COC(=O)COc1ccc(Cl)cc1C (stereo unspecified) : what was it?
[out] inactive

[in] Assay outcome for `CC(=N\O)/C(C)=N/O` : what was it?
[out] inactive

[in] Assay outcome for CCCCC1C(=O)N(c2ccccc2)N(c2ccc(O)cc2)C1=O (stereo unspecified) : what was it?
[out] inactive

[in] Assay outcome for `C[N+]1(C)CCC(=C(c2ccccc2)c2ccccc2)CC1` : what was it?
[out] inactive

[in] Assay outcome for `CCN(Cc1cccc(S(=O)(=O)O)c1)c1ccc(C(=C2C=CC(=[N+](CC)Cc3cccc(S(=O)(=O)[O-])c3)C=C2)c2ccccc2)cc1` : what was it?
[out] inactive

[in] Assay outcome for CCC1(C)CC(=O)NC1=O (stereo unspecified) : what was it?
[out] inactive
